- MEASUREMENT_TARGET: UniProtKB P13995
- Sequence (P13995 36-350): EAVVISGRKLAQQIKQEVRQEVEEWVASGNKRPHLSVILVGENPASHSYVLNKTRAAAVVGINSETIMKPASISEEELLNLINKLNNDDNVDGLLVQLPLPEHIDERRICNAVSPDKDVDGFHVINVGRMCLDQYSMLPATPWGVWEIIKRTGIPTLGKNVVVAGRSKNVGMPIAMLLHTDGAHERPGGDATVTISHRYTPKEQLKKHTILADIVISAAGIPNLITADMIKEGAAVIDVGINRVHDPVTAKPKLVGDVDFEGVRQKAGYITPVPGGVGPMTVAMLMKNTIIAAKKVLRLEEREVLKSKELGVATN
pIC50: −log10 of the molar value.
MEASURED_PARAMETER: pIC50

Illustrative cases are given below, each with its answer.
{"COMPOUND": "Cn1c(N2CCC(O)CC2)nc2c1c(=O)n(Cc1cc3ccccc3[nH]1)c(=O)n2C", "RESULT": "6.00 to 8.00"}
{"COMPOUND": "Cn1c(Nc2cn[nH]c2)nc2c1c(=O)n(Cc1ccc(Cl)c(Cl)c1)c(=O)n2C", "RESULT": "5.30 to 6.00"}
{"COMPOUND": "Cn1c(Nc2nccc(O)n2)nc2c1c(=O)n(Cc1ccc(Cl)c(Cl)c1)c(=O)n2C", "RESULT": "6.00 to 8.00"}
{"COMPOUND": "Cc1ccc2[nH]c(Cn3c(=O)c4c(nc(Nc5cc[nH]c(=O)n5)n4C)n(C)c3=O)cc2c1", "RESULT": "6.00 to 8.00"}
{"COMPOUND": "Cn1c(=O)n(Cc2cc3c(Cl)cccc3[nH]2)c(=O)c2c1nc(NC1CCCC(C(=O)O)C1)n2CCN (stereo not drawn)", "RESULT": "6.00 to 8.00"}
{"COMPOUND": "CC(c1ccc(Cl)c(Cl)c1)n1c(=O)c2c(nc(NCCCO)n2C)n(C)c1=O (stereo not drawn)", "RESULT": "< 5.00"}
{"COMPOUND": "Cn1c(Nc2cc[nH]c(=O)n2)nc2c1c(=O)n(Cc1cc3ccccc3[nH]1)c(=O)n2C", "RESULT": "6.00 to 8.00"}
{"COMPOUND": "Cn1c(C2CCCN2)nc2c1c(=O)n(Cc1cc3c(Cl)cccc3[nH]1)c(=O)n2C (stereo not drawn)", "RESULT": "6.00 to 8.00"}
{"COMPOUND": "Cn1c(Nc2cccc(-c3ccccc3)n2)nc2c1c(=O)n(Cc1cc3c(Cl)cccc3[nH]1)c(=O)n2C", "RESULT": "5.30 to 6.00"}
{"COMPOUND": "Cn1c(Nc2ccncc2)nc2c1c(=O)n(Cc1cc3c(C#N)cccc3[nH]1)c(=O)n2C", "RESULT": "5.00 to 5.30"}

For every listed record, write down its pIC50.
1. CCC(N)c1nc2c(c(=O)n(Cc3cc4c(Cl)cccc4[nH]3)c(=O)n2C)n1C (stereo not drawn)
2. Cn1c(NC2(C(=O)O)CCCC2)nc2c1c(=O)n(Cc1ccc(C(F)(F)F)cc1)c(=O)n2C

[reply]
["6.00 to 8.00", "< 5.00"]

For every listed record, write down its pIC50.
1. Cn1c(Nc2ccnc([C@@H]3C[C@H]3C(=O)O)c2)nc2c1c(=O)n(Cc1ccc(Cl)c(Cl)c1)c(=O)n2C (single isomer, unassigned)
2. Cn1c(N[C@H]2CC[C@@H](C(=O)O)C2)nc2c1c(=O)n(Cc1ccc(Cl)c(Cl)c1)c(=O)n2C
3. Cn1c(C(N)c2ccccc2)nc2c1c(=O)n(Cc1cc3c(Cl)cccc3[nH]1)c(=O)n2C (stereo not drawn)

[reply]
1. 6.00 to 8.00
2. 6.00 to 8.00
3. 6.00 to 8.00

---

Here we list compounds with their recorded pIC50 when tested on Human MTHFD2 (Homo sapiens).
pIC50: −log10 of the molar value.

{"COMPOUND": "Cn1c(NC2CNC2)nc2c1c(=O)n(Cc1ccc(Cl)c(Cl)c1)c(=O)n2C", "pIC50": "5.30 to 6.00"}
{"COMPOUND": "Cn1c(Nc2ccnc(C(F)(F)F)c2)nc2c1c(=O)n(Cc1cc3c(Cl)cccc3[nH]1)c(=O)n2C", "pIC50": "5.30 to 6.00"}
{"COMPOUND": "CCOC(=O)Cn1c(=O)n(Cc2ccc(Cl)c(Cl)c2)c(=O)c2c1nc(NCCCO)n2C", "pIC50": "5.00 to 5.30"}
{"COMPOUND": "Cn1c(NC2CCCC(C(=O)O)C2)nc2c1c(=O)n(Cc1ccc(C(F)(F)F)cc1)c(=O)n2C (racemic)", "pIC50": "5.30 to 6.00"}
{"COMPOUND": "Cn1c(Nc2ccnc(C(=O)O)c2)nc2c1c(=O)n(Cc1ccc(Cl)c(Cl)c1)c(=O)n2C", "pIC50": "5.30 to 6.00"}
{"COMPOUND": "C[C@H](O)CNc1nc2c(c(=O)n(Cc3ccc(Cl)c(Cl)c3)c(=O)n2C)n1C", "pIC50": "6.00 to 8.00"}

For every listed record, write down its pIC50.
1. Cn1c(CO)nc2c1c(=O)n(Cc1ccc(Cl)c(Cl)c1)c(=O)n2C
2. Cn1c(N[C@H]2CCC[C@@H]2O)nc2c1c(=O)n(Cc1ccc(Cl)c(Cl)c1)c(=O)n2C

[reply]
1: 5.30 to 6.00; 2: 6.00 to 8.00

---

- MEASUREMENT_TARGET: Human MTHFD2 (Homo sapiens, UniProt P13995)
- Sequence (P13995 36-350): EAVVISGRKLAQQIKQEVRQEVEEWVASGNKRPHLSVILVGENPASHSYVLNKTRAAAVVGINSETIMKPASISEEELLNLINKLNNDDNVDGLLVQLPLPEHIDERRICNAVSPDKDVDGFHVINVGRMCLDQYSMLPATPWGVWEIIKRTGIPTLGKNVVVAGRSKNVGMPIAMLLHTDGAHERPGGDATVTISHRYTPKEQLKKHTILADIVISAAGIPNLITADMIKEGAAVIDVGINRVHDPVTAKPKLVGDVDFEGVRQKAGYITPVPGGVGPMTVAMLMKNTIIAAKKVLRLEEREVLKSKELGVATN
MEASURED_PARAMETER: IC50

Illustrative cases are given below, each with its answer.
{"COMPOUND": "Cn1c(N[C@H]2C[C@H](C(=O)O)C2)nc2c1c(=O)n(Cc1ccc(Cl)c(Cl)c1)c(=O)n2C", "RESULT": "10 to 1000 nM"}
{"COMPOUND": "Cn1c(Nc2cccc(CC(=O)O)c2)nc2c1c(=O)n(Cc1ccc(Cl)c(Cl)c1)c(=O)n2C", "RESULT": "10 to 1000 nM"}
{"COMPOUND": "Cn1c(Nc2ccncc2)nc2c1c(=O)n(Cc1cc3c(-c4ccccc4)cccc3[nH]1)c(=O)n2C", "RESULT": "> 10000 nM"}
{"COMPOUND": "C[C@H](O)CNc1nc2c(c(=O)n(Cc3ccc(Cl)cc3)c(=O)n2C)n1C", "RESULT": "5000 to 10000 nM"}
{"COMPOUND": "C[C@H](O)CNc1nc2c(c(=O)n(Cc3ccc(Cl)c(F)c3)c(=O)n2C)n1C", "RESULT": "1000 to 5000 nM"}
{"COMPOUND": "Cc1cccc2[nH]c(Cn3c(=O)c4c(nc(N[C@H]5C[C@H](CO)C5)n4C)n(C)c3=O)cc12", "RESULT": "10 to 1000 nM"}

For every listed record, write down its IC50.
1. Cn1c(=O)n(Cc2ccc(Cl)c(Cl)c2)c(=O)c2c1nc(NC1CCCC(C(=O)O)C1)n2CC(=O)O (stereo not drawn)
2. Cn1c(Nc2ccc(C(=O)O)cc2)nc2c1c(=O)n(Cc1ccc(Cl)c(Cl)c1)c(=O)n2C
3. CC(c1nc2c(c(=O)n(Cc3cc4c(Cl)cccc4[nH]3)c(=O)n2C)n1C)N(C)C (stereo not drawn)
4. Cn1c(N)nc2c1c(=O)n(Cc1cc3ccccc3[nH]1)c(=O)n2C
5. Cn1c(C(N)CO)nc2c1c(=O)n(Cc1cc3c(Cl)cccc3[nH]1)c(=O)n2C (stereo not drawn)

[reply]
1: 1000 to 5000 nM; 2: 10 to 1000 nM; 3: 10 to 1000 nM; 4: 5000 to 10000 nM; 5: 10 to 1000 nM

For every listed record, write down its IC50.
1. Cn1c(Cn2c(=O)c3c(nc(Nc4ccncn4)n3C)n(C)c2=O)cc2cc(Cl)ccc21
2. Cn1c(N)nc2c1c(=O)n(Cc1cc3cc(Cl)ccc3[nH]1)c(=O)n2C
3. Cn1c(Nc2ccnc(CCC(N)=O)n2)nc2c1c(=O)n(Cc1cc3c(Cl)cccc3[nH]1)c(=O)n2C
4. Cn1c(=O)n(Cc2ccc(Cl)c(Cl)c2)c(=O)c2c1nc(NC1CCCC(C(=O)O)C1)n2CCC(=O)O (stereo not drawn)
5. C[C@H](N)c1nc2c(c(=O)n(Cc3cc4c(Cl)cccc4[nH]3)c(=O)n2C)n1C (single isomer, unassigned)

[reply]
["10 to 1000 nM", "5000 to 10000 nM", "10 to 1000 nM", "5000 to 10000 nM", "10 to 1000 nM"]

Ref: patent US12187728B2
